We begin with a simple list: items and their reported Ki.
- system: GST-MCL-1 (Homo sapiens (Human), UniProt Q07820)
- Sequence (Q07820 whole entry): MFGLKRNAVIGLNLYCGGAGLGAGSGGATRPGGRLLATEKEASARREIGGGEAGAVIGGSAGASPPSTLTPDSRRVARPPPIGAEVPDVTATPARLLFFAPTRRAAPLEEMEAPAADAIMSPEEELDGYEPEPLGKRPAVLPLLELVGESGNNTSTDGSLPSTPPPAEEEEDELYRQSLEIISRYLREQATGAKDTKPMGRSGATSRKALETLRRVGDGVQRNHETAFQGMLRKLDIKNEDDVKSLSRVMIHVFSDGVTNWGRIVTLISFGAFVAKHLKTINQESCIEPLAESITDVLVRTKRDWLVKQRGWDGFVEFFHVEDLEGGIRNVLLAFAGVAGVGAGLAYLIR
- assay_info: TR-FRET MCL-1 binding assay (competition with probe F-Bak)
- details: read-out: MCL-1 Binding Ki (nM, 10% HS), in the presence of 10% HS

molecule	Ki, nM
Cc1c(Cl)c2c(Cl)c(C)c1-c1c(C3=CCCC3)sc3ncnc(c13)O[C@@H](C(=O)O)Cc1cc(ccc1OCc1ccnc([C@H]3CC[C@@](F)(COC[C@@H]4COCCO4)CC3)n1)OC[C@@H](CN1CCN(C)CC1)O2	0.63
Cc1c(Cl)c2c(Cl)c(C)c1-c1c(-c3ccc(F)cc3)sc3ncnc(c13)O[C@@H](C(=O)O)Cc1cc(ccc1OCc1ccnc(-c3cccc(OC[C@H]4COCCO4)c3)n1)OC[C@@H](CN1CCN(C)CC1)O2	1.01
Cc1c(Cl)c2c(Cl)c(C)c1-c1c(-c3ccc(F)cc3)sc3ncnc(c13)O[C@@H](C(=O)O)Cc1cc(ccc1OCc1ccnc([C@H]3CC[C@H](COC[C@H]4COCCO4)CC3)n1)OC[C@@H](CN1CCN(C)CC1)O2	0.131
Cc1c(Cl)c2c(Cl)c(C)c1-c1c(-c3ccc(F)cc3)sc3ncnc(c13)O[C@@H](C(=O)O)Cc1cc(ccc1OCc1ccnc(-c3ccc(OC[C@H]4COCCO4)cc3)n1)OC[C@@H](CN1CCN(C)CC1)O2	1.04
Cc1c(Cl)c2c(Cl)c(C)c1-c1c(-c3ccc(F)cc3)sc3ncnc(c13)O[C@@H](C(=O)O)Cc1cc(ccc1OCc1ccnc(-c3ccc(OC[C@@H]4COCCO4)cc3)n1)OC[C@@H](CN1CCN(C)CC1)O2	0.92
Cc1c(Cl)c2c(Cl)c(C)c1-c1c(C3CCC3)sc3ncnc(c13)O[C@@H](C(=O)O)Cc1cc(ccc1OCc1ccnc([C@H]3CC[C@H](OC[C@H]4COCCO4)CC3)n1)OC[C@@H](CN1CCN(C)CC1)O2	0.72
Cc1c(Cl)c2c(Cl)c(C)c1-c1c(-c3ccc(F)cc3)sc3ncnc(c13)O[C@@H](C(=O)O)Cc1cc(ccc1OCc1ccnc(N3CCO[C@@H](COCC4COCCO4)C3)n1)OC[C@@H](CN1CCN(C)CC1)O2 (some centres unmarked)	0.47
Cc1c(Cl)c2c(Cl)c(C)c1-c1c(-c3ccc(F)cc3)sc3ncnc(c13)O[C@@H](C(=O)O)Cc1cc(ccc1OCc1ccnc(-c3ccc(NC[C@H]4COCCO4)nc3)n1)OC[C@@H](CN1CCN(C)CC1)O2	0.05
COc1ccccc1-c1nccc(COc2ccc3cc2C[C@H](C(=O)O)Oc2ncnc4sc(C5=COCCO5)c(c24)-c2c(C)c(Cl)c(c(Cl)c2C)O[C@H](CN2CCN(C)CC2)CO3)n1	0.02
Cc1c(Cl)c2c(Cl)c(C)c1-c1c(-c3ccc(F)cc3)sc3ncnc(c13)O[C@@H](C(=O)O)Cc1cc(ccc1OCc1nccc(-c3ccc(OC[C@H]4COCCO4)cc3)n1)OC[C@@H](CN1CCN(C)CC1)O2	41
Cc1c(Cl)c2c(Cl)c(C)c1-c1c(-c3ccc(F)cc3)sc3ncnc(c13)O[C@@H](C(=O)O)Cc1cc(ccc1OCc1cc(-c3ccc(OC[C@H]4COCCO4)cc3)ncn1)OC[C@@H](CN1CCN(C)CC1)O2	5.27
Cc1c(Cl)c2c(Cl)c(C)c1-c1c(-c3ccc(F)cc3)sc3ncnc(c13)O[C@@H](C(=O)O)Cc1cc(ccc1OCc1ccnc(-c3ccccc3OCC3COC(C)(C)O3)n1)OC[C@@H](CN1CCN(C)CC1)O2 (stereo in doubt)	0.365
Cc1c(Cl)c2c(Cl)c(C)c1-c1c(-c3ccc(F)cc3)sc3ncnc(c13)O[C@@H](C(=O)O)Cc1cc(ccc1OCc1ccnc(C3=CC[C@@](F)(COC[C@H]4COCCO4)CC3)n1)OC[C@@H](CN1CCN(C)CC1)O2	0.18
Cc1c(Cl)c2c(Cl)c(C)c1-c1c(C3=CCCC3)sc3ncnc(c13)O[C@@H](C(=O)O)Cc1cc(ccc1OCc1ccnc([C@H]3CC[C@](F)(COC[C@@H]4COCCO4)CC3)n1)OC[C@@H](CN1CCN(C)CC1)O2	0.3
Cc1c(Cl)c2c(Cl)c(C)c1-c1c(-c3ccc(F)cc3)sc3ncnc(c13)O[C@@H](C(=O)O)Cc1cc(ccc1OCc1ccnc([C@H]3CC[C@H](OCC4COCO4)CC3)n1)OC[C@@H](CN1CCN(C)CC1)O2 (some centres unmarked)	0.09
COc1ccccc1-c1ccc(OC[C@@H]2COCCO2)c(COc2ccc3cc2C[C@H](C(=O)O)Oc2ncnc4sc(-c5ccc(F)cc5)c(c24)-c2c(C)c(Cl)c(c(Cl)c2C)O[C@H](CN2CCN(C)CC2)CO3)n1	114
Cc1c(Cl)c2c(Cl)c(C)c1-c1c(C3=CCCC3)sc3ncnc(c13)O[C@@H](C(=O)O)Cc1cc(ccc1OCc1ccnc(C3=CC[C@](F)(COC[C@@H]4COCCO4)CC3)n1)OC[C@@H](CN1CCN(C)CC1)O2	0.52

Origin of the recorded values: patent US10676485B2
